- System: Fibroblast
- assayProtocol: Incucyte cell viability with human fibroblast; also: unitless GR value; below 1 slowed growth and below 0 cell loss
- Format: toxicity, cell-based
- statedConditions: 6 h, 10 µM, compound concentration 10 uM, replicate number 1
So basically, if Growth Rate comes in under 0.7 it's Satisfied, and if it's 0.7 or more it's Not satisfied.

Some solved cases for reference:
C=CC(=O)N1CCC[C@@H](n2nc(-c3ccc(Oc4ccccc4)cc3)c3c(N)ncnc32)C1
Satisfied
CC(C)n1cnc2c(Nc3cccc(Cl)c3)nc(N[C@H]3CCCC[C@@H]3N)nc21
Satisfied
Oc1ccc(-c2nc(-c3ccncc3)c(-c3ccc(F)cc3)[nH]2)cc1
Satisfied

Please check: Growth Rate for Nc1ncnc2c1c(I)cn2[C@@H]1O[C@H](CO)[C@@H](O)[C@H]1O , strictly under 0.7 or not? Satisfied

Then N#Cc1ccc(C#CC[C@@H](C#N)NC(=O)[C@H]2CCCCN2)cc1F.O=C(O)C(F)(F)F ? Not satisfied

Then CCCn1cc(-c2cc(C3C(=O)N(CC)c4ccc(C(F)(F)F)cc4N(c4ccccc4)C3=O)cc(OC)c2O)cn1 (configuration not stated) ? Not satisfied

Then COC1(C#Cc2ccc(Cl)c(-c3ncc4c(n3)-c3sc(NC(C)=O)nc3CC4)c2)CCN(C)CC1 ? Satisfied

Then CN(C)[C@H]1CCN(c2cc(C(F)(F)F)c(C#N)c(Nc3cccc(CCC(=O)O)c3)n2)C1.O=C(O)C(F)(F)F ? Not satisfied

Then Nc1nccc(-c2ccn3c(N)nccc23)n1 ? Not satisfied

Then CC1(C)Oc2ncnc(N)c2N=C1c1ccc([C@H]2CC[C@H](CC(=O)O)CC2)cc1 ? Satisfied

Then COc1cc(-c2nn([C@H]3CC[C@H](N4CCN(C(C)=O)CC4)CC3)c3ncnc(N)c23)ccc1NC(=O)c1cc2ccccc2n1C ? Satisfied

Then Cc1cc2c(-c3ccco3)cnc(N[C@@H]3CCN(C)C[C@H]3C(=O)NC3CCCCC3)c2[nH]c1=O ? Satisfied

Then CN1CCN(c2ccc(-n3cc(-c4ccncc4OCC4CCNCC4)cn3)cc2)CC1 ? Not satisfied

Then C=CC(=O)Nc1cc(Nc2nccc(-n3cc(CN(C)C)c(-c4ccccc4)n3)n2)c(OC)cc1N1CCOCC1 ? Satisfied

Then COCCNC1CCC(Nc2cc(-c3csc(NCC4(C#N)CCOCC4)n3)c(Cl)cn2)CC1 (configuration not stated) ? Not satisfied

Then CC(C)(C)c1cnc(CSc2cnc(NC(=O)C3CCNCC3)s2)o1 ? Satisfied

###

- Tested on: Fibroblast
- assayProtocol: Incucyte cell viability with human fibroblast; also: unitless GR value; below 1 slowed growth and below 0 cell loss
- Type: toxicity, cell-based
- statedConditions: 18 h, 10 µM, compound concentration 10 uM, replicate number 1
Reported Growth Rate by item:
Give your answer as a number; write no unit.

See these solved cases before continuing.
CCc1cncnc1N1CCN(Cc2nc3cc(C(F)(F)F)ccc3[nH]2)CC1
0.44
Cc1onc(-c2ccc(F)cc2)c1COc1ccc(C(=O)N2CCS(=O)(=O)CC2)cn1 [BASMISANIL]
-0.07
N[C@@H]1CCCC[C@H]1Oc1ccc2ncc(-c3cc4ccccc4o3)n2n1
-0.67
O=C1NCc2ccc3c(-c4cccc(Cl)c4)c[nH]c3c21
-0.89
Clc1cccc(Nc2nccc(NCCCN3CCOCC3)n2)c1
0.6

Recorded Growth Rate for NC(=O)c1ccc(-c2nc(-c3ccc4c(c3)OCO4)c(-c3ccccn3)[nH]2)cc1.O with Fibroblast, please? -0.48

Then COc1ncc2cc(C(=O)Nc3cc(C(=O)NCc4cccc(Cl)c4)ccc3Cl)c(=O)[nH]c2n1 ? -0.46

Then CNC1(C)C2CCC(C2)C1(C)C.Cl (centres undefined) [MECAMYLAMINE HYDROCHLORIDE] ? 0.43
